- tested.system: T1, human TNFR2 extracellular domain fused to human IgG1 Fc (human, UniProt P20333 23-257)
- T1 construct: also called TNFR2-huFc; huTNFR2; not shown: C-terminal human IgG1 Fc
- T1 sequence: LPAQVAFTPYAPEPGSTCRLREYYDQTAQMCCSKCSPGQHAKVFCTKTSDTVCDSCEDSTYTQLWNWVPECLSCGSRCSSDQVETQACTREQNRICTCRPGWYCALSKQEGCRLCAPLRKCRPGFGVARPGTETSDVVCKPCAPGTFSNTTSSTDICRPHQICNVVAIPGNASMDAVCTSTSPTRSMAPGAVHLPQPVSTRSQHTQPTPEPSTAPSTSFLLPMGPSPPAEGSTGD
- procedure.summary: blocking ELISA: antibody pre-mixed with huTNFR2, binding of huTNFR2 to coated human TNFα read out
measurement.kind: IC50 (nM)
Hi! Could you send only the number? It should be in nM, unit omitted.

Exercise: What does the record list as IC50 for 29G3 chimeric anti-TNFR2 antibody (antibody, V domains shown, Chimeric: mouse variable domains with human constant regions, made as recombinant IgG1) VH: EVMLVESGGASVKPGGSLKLSCAASGFTFSNFAMSWVRQTPEKRLEWVATIRSGDNYSYYSDNVKGRFTISRDNARNTLYLQMSSLRSKDTSIYYCARNWDKVFDYWGQGTTLTVSS VL: DIVLTQSPASLAVSLGQRATISCRASESVDSYGYSFMHWYQQKPGQPPKLLIYRASNLKSGIPARFSGSGSRTDFTLTINPVEADDVATYYCQQSNEDHTFGGGTKLEIK ?
Key: 0.505

Exercise: Likewise for 11C1 chimeric anti-TNFR2 antibody (antibody, V domains shown, Chimeric: mouse variable domains with human constant regions, made as recombinant IgG1) VH: DVQLRESGPGLVTPSQSLSLTCSVTGYSITSGYYWNWIRQIPGNKLEWMGYITYDGNNNYDPSLKNRISITRDTSKNQFFLTLNSVTSEDTATYYCARGDYGDSAMDYWGQGTSVTVSS VL: EIVLTQSPAITAASLGQKVTITCSASSSVSYMHWYQQKSGTSPKPWIYEISKLASGVPARFSGSGSGTSYSLIISSMEAEDAAIYYCQQWNYPLITFGAGTKLELK ?
Key: 0.723

Exercise: Same for 15H10 chimeric anti-TNFR2 antibody (antibody, V domains shown, Chimeric: mouse variable domains with human constant regions, made as recombinant IgG1) VH: DVQLQESGPGLVTPSQSLSLTCSVTGYSITSGYYWNWIRQFPGNKLEWMGYITYDGNNNYNPSLKSRFSITRDTSKNQFFLKLNSVTSEDTATYYCARGDYGDSAMDYWGQGTSVTVSS VL: EIVLTQSPAITAASLGQKVTITCSASSGVNYMHWYQQKSGTSPKPWIYEISKLASGVPARFSGSGSGTSYSLTISSMEAEDAAIYYCQQWNYPLITFGAGTKVELK
Key: 0.584

Exercise: Next binder up: 102E4 chimeric anti-TNFR2 antibody (antibody, V domains shown, Chimeric: mouse variable domains with human constant regions, made as recombinant IgG1) VH: EVLLQQSGAELVRPGASVKLSCTASGFNIKDDFIHWVQQRPEQGLEWIGRINPSNANTEYAPKFQDKATITTDTSSNTAYLQLSSLTSEDTAVYYCTRNDGYYDGLFYWGQGTTLTVSS VL: DIVMTQSHKFMSSSVGDRVSITCKASQDVGTAVAWYQQKPGQSPKLLIYWASTRHTGVPDRFTGSGSGTDFTLTISNVQSEDLADYFCQQYSSYPFTFGSGTKLEIK
Key: 1.13

Exercise: Proceed to 85G8.4 chimeric anti-TNFR2 antibody (antibody, V domains shown, Chimeric: mouse variable domains with human constant regions, made as recombinant IgG1) VH: EVQLQQSGPELVKPGASVKISCKTSGYTFTDFNMDWVKQSHGKSLEWIGYINPNNGDAAYNQKFKSKATLTVDKSSNTAYMELHSLTSDDSAVYYCARWGWAFAYWGQGTLVTVSA VL: DIVMTQSHKIMSTSVGDRVSITCKASQDVKTAVAWYQQKPGQSPKLLIYATSYRYTGVPDRFTGSGSGTDFTFTISTVQAEDLAVYYCQQHYSIPYTFGGGTKLEIK
Key: 0.583
